Give measured IC50 for each item. Keep answers brief.
Target: UniProt:P28571
Sequence (P28571 1-651 isoform P28571-2): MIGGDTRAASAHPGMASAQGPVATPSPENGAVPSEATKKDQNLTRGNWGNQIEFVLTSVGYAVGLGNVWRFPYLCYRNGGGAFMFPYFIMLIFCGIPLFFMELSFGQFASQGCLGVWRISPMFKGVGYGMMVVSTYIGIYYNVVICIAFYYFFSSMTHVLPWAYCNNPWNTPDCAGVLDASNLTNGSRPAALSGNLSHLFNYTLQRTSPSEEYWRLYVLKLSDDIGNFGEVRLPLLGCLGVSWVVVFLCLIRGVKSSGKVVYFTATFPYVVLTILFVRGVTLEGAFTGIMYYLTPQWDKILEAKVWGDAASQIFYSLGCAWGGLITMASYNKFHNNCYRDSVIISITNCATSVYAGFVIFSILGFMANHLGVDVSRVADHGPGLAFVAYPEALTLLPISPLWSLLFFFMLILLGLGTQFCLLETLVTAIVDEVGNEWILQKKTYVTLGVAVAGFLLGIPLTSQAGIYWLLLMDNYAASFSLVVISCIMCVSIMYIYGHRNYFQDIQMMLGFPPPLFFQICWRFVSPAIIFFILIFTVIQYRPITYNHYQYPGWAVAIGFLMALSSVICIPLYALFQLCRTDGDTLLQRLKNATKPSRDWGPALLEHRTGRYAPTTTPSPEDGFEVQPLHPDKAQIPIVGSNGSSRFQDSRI
Test: Glycine Uptake Inhibition Assay (mGlyT-1b)
Conditions: [3H]-glycine uptake in Flp-in-CHO cells stably transfected with mGlyT-1b cDNA; 20 min preincubation at 22° C.
Numbers only, in nM.

MOLECULE | REPORTED_VALUE
CCc1cc(C(F)(F)F)ccc1C(=O)N[C@@]1(c2ccccc2)CC[C@@H]2CC[C@H]1N2C (stereo in doubt) | 31

For every listed record, write down its IC50.
1. CCc1cc(C(F)(F)F)ccc1C(=O)N[C@]1(c2ccccc2)CC[C@H]2CC[C@@H]1N2C (stereo in doubt)
2. COc1cc(C(F)(F)F)cc(C2CC2)c1C(=O)N[C@]1(c2ccccc2)CC[C@H]2CC[C@@H]1N2C (stereo in doubt)
3. COc1cc(C(F)(F)F)cc(C2CC2)c1C(=O)N[C@@]1(c2ccccc2)CC[C@@H]2CC[C@H]1N2C (stereo in doubt)

Result ::
1: 19; 2: 6; 3: 6

For every listed record, write down its IC50.
1. COc1cc(C(F)(F)F)cc(SC)c1C(=O)N[C@]1(c2ccccc2)CC[C@H]2CC[C@@H]1N2C
2. CN1[C@H]2CC[C@@H]1[C@](NC(=O)c1ccc(C(F)(F)F)cc1C1CC1)(c1ccccc1)CC2 (racemic)

Result ::
[21, 8]

###

molecular target: mGlyT-1b (Mus musculus, UniProt P28571); experiment: Glycine Uptake Inhibition Assay (mGlyT-1b); conditions: [3H]-glycine uptake in Flp-in-CHO cells stably transfected with mGlyT-1b cDNA; 20 min preincubation at 22° C.
Give measured pIC50 for each item. Keep answers brief.
Numbers only, as −log10 of the molar value.

Solved cases (2 shown):
COMPOUND | ASSAY_TARGET | pIC50
COc1cc(C(F)(F)F)cc(C)c1C(=O)N[C@]1(c2ccccc2)CC[C@H]2CC[C@@H]1N2C (stereo in doubt) | mGlyT-1b (Mus musculus, UniProt P28571) | 7.70
CCc1cc(C(F)(F)F)cc(OC)c1C(=O)N[C@@]1(c2ccccc2)CC[C@@H]2CC[C@H]1N2C (racemic) | mGlyT-1b (Mus musculus, UniProt P28571) | 7.85

Consider now this further compound.
Query :: # query: pIC50 of entry COc1cc(C(F)(F)F)cc(C2CC2)c1C(=O)N[C@@]1(c2ccccc2)CC[C@@H]2CC[C@H]1N2C (stereo in doubt)
Result :: 8.40

These data points were gathered from patent US8153653B2.
